ASSAY_SYSTEM: pFGFR4 in MDA-MB-453 cells (Homo sapiens (Human), UniProt P22455, Y367C)
Sequence (P22455 22-802 Y367C): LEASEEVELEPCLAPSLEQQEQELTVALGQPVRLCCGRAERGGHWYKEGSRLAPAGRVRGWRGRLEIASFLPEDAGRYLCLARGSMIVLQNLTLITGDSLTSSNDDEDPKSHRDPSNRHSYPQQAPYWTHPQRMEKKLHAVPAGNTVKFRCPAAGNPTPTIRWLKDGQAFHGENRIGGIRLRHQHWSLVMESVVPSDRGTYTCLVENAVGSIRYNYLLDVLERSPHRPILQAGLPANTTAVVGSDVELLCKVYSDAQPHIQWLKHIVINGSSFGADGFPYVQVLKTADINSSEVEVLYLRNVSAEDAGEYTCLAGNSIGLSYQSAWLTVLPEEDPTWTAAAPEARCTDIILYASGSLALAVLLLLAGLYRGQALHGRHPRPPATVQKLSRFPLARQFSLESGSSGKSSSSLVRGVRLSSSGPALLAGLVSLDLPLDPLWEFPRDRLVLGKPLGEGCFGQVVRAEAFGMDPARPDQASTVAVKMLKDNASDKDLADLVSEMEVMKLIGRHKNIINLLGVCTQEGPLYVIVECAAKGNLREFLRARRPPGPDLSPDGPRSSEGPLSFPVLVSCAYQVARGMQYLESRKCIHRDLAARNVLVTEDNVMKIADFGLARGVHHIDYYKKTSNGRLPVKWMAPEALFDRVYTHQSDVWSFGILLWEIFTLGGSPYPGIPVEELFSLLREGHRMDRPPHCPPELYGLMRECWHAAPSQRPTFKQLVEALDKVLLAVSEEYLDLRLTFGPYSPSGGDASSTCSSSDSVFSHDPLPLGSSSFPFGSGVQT
PROCEDURE_SUMMARY: FGFR4 signaling (phospho-FGFR4) in MDA-MB-453 cells
Type: cell-based
MEASUREMENT_CONTEXT: Method C ELISA, 1 hr treatment
RESULT_TYPE: EC50

C=CC(=O)Nc1ccccc1Nc1ncc2c(n1)N(Cc1ccccc1)C(=O)N(c1c(Cl)c(OC)cc(OC)c1Cl)C2 [I-3]
< 100 nM

Now look at this one.
For the compound C=CC(=O)Nc1ccccc1CNc1ncc2c(n1)N(Cc1cccc(NC(=O)CC)c1)C(=O)N(c1c(Cl)c(OC)cc(OC)c1Cl)C2 [I-180] , what EC50 is on record?
< 100 nM

====

Test system: Huh7 cells
PROCEDURE_SUMMARY: Cell proliferation, Huh7 (CellTiter Glo)
Format: cell-based
MEASUREMENT_CONTEXT: Homo sapiens, Huh-7; Huh7; 120 hr; read-out: Cell Proliferation GI50 (nM) HUH
RESULT_TYPE: GI50

Examples with answers:
C=CC(=O)N[C@H]1CCCC[C@H]1Nc1ncc2c(n1)N(C)C(=O)N(c1c(F)c(OC)cc(OC)c1Br)C2
101 to 500 nM
C=CC(=O)Nc1ccccc1Nc1ncc2c(n1)NC(=O)N(c1cc(OC)cc(OC)c1)C2
> 1000 nM
C=CC(=O)NC1CCCCC1Nc1ncc2c(n1)N(Cc1csc(C)n1)C(=O)N(c1c(Cl)c(OC)cc(OC)c1Cl)C2 (stereo not shown)
501 to 999 nM
C=CC(=O)N[C@@H]1COC[C@@H]1Nc1ncc2cc(-c3c(Cl)c(OC)cc(OC)c3Cl)c(=O)n(C)c2n1
> 1000 nM
C=CC(=O)N[C@H]1COC[C@H]1Nc1ncc2cc(-c3c(Cl)c(OC)cc(OC)c3Cl)c(=O)n(C)c2n1
< 100 nM
C=CC(=O)N[C@@H]1COC[C@@H]1Nc1ncc2c(n1)N(C)C(=O)N(c1c(Cl)c(OC)cc(OC)c1Cl)C2
> 1000 nM

Now look at this one.
For the compound `C=CC(=O)N[C@H]1CCCC[C@H]1Nc1ncc2c(n1)N(C)C(=O)N(c1c(Cl)c(OC)cc(OC)c1Cl)C2` , what GI50 is on record?
501 to 999 nM

====

Tested on: Huh7 cells
PROCEDURE_SUMMARY: Cell proliferation, Huh7 (CellTiter Glo)
Format: cell-based
MEASUREMENT_CONTEXT: Homo sapiens, Huh-7; Huh7; 120 hr; read-out: Cell Proliferation GI50 (nM) HUH
Measured GI50 of individual entries

Examples with answers:
C=CC(=O)NC1COCC1Nc1ncc2c(n1)N(Cc1cnn(C)c1)C(=O)N(c1c(Cl)c(OC)cc(OC)c1Cl)C2 (stereo not shown) [I-213]
< 100 nM
C=CC(=O)NC1CCCCC1Nc1ncc2c(n1)N(CC#N)C(=O)N(c1c(Cl)c(OC)cc(OC)c1Cl)C2 (racemic) [I-47]
> 1000 nM

Recorded GI50 for C=CC(=O)N[C@H]1CCCC[C@H]1Nc1ncc2cc(-c3c(Cl)c(OC)cc(OC)c3Cl)c(=O)n(C)c2n1 [I-223] with Huh7 cells, please?
101 to 500 nM

Recorded GI50 for C=CC(=O)Nc1cc(C(F)(F)F)ccc1Nc1ncc2c(n1)N(Cc1ccccc1)C(=O)N(c1c(Cl)c(OC)cc(OC)c1Cl)C2 [I-6] with Huh7 cells, please?
101 to 500 nM
